Assay: self-splicing fitness, log relative to wild type (ln ratio); higher = more splicing; Tetrahymena group I intron in knt gene, E. coli kanamycin selection, DiMSum; sequences stand for … in CUCUCU…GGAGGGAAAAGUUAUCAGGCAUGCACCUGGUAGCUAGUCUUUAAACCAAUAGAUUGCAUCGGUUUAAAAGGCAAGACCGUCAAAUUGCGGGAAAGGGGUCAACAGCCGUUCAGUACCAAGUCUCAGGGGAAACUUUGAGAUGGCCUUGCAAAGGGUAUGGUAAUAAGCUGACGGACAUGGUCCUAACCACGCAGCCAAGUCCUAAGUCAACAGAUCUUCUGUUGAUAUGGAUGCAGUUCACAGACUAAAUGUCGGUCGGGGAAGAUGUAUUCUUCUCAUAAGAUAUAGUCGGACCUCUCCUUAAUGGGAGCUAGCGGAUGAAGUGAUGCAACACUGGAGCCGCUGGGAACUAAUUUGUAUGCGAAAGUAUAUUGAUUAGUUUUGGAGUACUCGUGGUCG;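 note: selection with 25 µg/mL kanamycin versus none on LB agar overnight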
Conditions: 37 °C
attribute_measured: self-splicing fitness (ln)
Give the figure only, with no unit attached.

Challenge: Look up and report measured self-splicing fitness (ln) for this entry: CAACAGCAAUAUUACGGUUG
Response given: -2.27

Challenge: Look up and report measured self-splicing fitness (ln) for this entry: GCCUAGCAAUAUUACGUCAG
Response given: -0.81
